- Test system: M. tuberculosis H37Rv (ATCC 27294)
- method.summary: In vitro anti-tuberculosis screening, BACTEC 460 radiometric system, percent inhibition of growth
- Assay type: cell-based, Mycobacterium tuberculosis
- cond: Mtb H37Rv, 12.5 μg/mL, BACTEC 12B medium
Measured Activity % inhibition at 12.5 μg/mL (chalcone-like compounds), listed per entry for reference.
measured.metric: Activity % inhibition at 12.5 μg/mL (chalcone-like compounds) (%)

> print(dat)
                                    molecule  experimental.value
 1  Nc1ccc(C(=O)/C=C/c2cccnc2N)cc1 [Compound 66]                   7
 2  O=C(/C=C/c1ccco1)c1ccc(Br)cc1O [Compound 63]                  17
 3    O=C(C=Cc1ccccn1)c1ccccn1 [Compound 60]                  42
 4  COc1ccc(C(=O)/C=C/c2cccnc2)cc1 [Compound 71]                   0
 5  COc1ccc(/C=C/C(=O)c2ccccn2)cc1 [Compound 76]                   0
 6   O=C(/C=C/c1ccncc1)c1ccco1 [Compound 75]                   0
 7  O=C(/C=C/c1ccccc1)c1cccc2ccccc12 [Compound 61]                  37
 8  COc1ccc(C(=O)/C=C/c2ccncc2)cc1 [Compound 70]                   0
 9  Nc1ncccc1/C=C/C(=O)c1cc2ccccc2cc1O [Compound 74]                   0
10  Nc1ccc(C(=O)C=Cc2cccnc2N)cc1 [Compound 73]                   0
11  COc1ccc(C(=O)/C=C/c2ccco2)c(O)c1 [Compound 65]                   3
12  O=C(/C=C/c1cc2ccccc2[nH]1)c1ccncc1 [Compound 64]                  12
13  CN(C)c1ccc(/C=C/C(=O)c2ccncc2)cc1 [Compound 68]                   1
14  Nc1ncccc1C=CC(=O)c1cc(Cl)ccc1O [Compound 72]                   0
15  COc1ccc(O)c(C(=O)/C=C/c2ccco2)c1 [Compound 69]                   0
16  CN(C)c1ccc(/C=C/C(=O)c2ccccn2)cc1 [Compound 62]                  16
